- experiment.description: Selectivity index, ratio of IC50 for African green monkey Vero cells to IC50 for chloroquine-sensitive Plasmodium falciparum D6 infected in red blood cells
- Assay type: toxicity, cell-based
- condition.description: read-out: Ratio IC50
measurement.kind: selectivity ratio

Give its selectivity ratio value. Item: `Cc1cc(N2CCOCC2)nc(N(CCCNc2ccnc3cc(Cl)ccc23)Cc2ccco2)n1`
> 189

Give its selectivity ratio value. Item: `Cc1cc(N(CCNc2ccnc3cc(Cl)ccc23)Cc2ccco2)nc(Cl)n1`
> 156

Give its selectivity ratio value. Item: `CCN1CCN(c2nc(C)cc(N(CCNc3ccnc4cc(Cl)ccc34)Cc3ccco3)n2)CC1`
> 263

Give its selectivity ratio value. Item: `Cc1cc(N2CCCCC2)nc(N(CCNc2ccnc3cc(Cl)ccc23)Cc2ccco2)n1`
> 222

Give its selectivity ratio value. Item: `Cc1cc(N(CCCNc2ccnc3cc(Cl)ccc23)Cc2ccco2)nc(N2CCCCC2)n1`
> 233

Give its selectivity ratio value. Item: `Cc1cc(N(CCCNc2ccnc3cc(Cl)ccc23)Cc2ccco2)nc(N2CCCC2)n1`
> 222

Give its selectivity ratio value. Item: `Cc1cc(N2CCN(C)CC2)nc(N(CCNc2ccnc3cc(Cl)ccc23)Cc2ccco2)n1`
> 238

Data provenance is ChEMBL document CHEMBL4004859.
